# System: HepG2
# EXPERIMENT: Antiproliferative activity against human HepG2 cells after 72 hrs by MTT assay
# Assay type: functional, cell-based
# APPLIED CONDITIONS: HepG2, 72 h
IC50 values by entry

INSERT INTO measurements (compound, quantity_name, result) VALUES
  ('COc1cc2c(Nc3ccc(C#N)cc3)ncnc2cc1OCCCN1CCCCC1CCO (stereo not drawn)', 'IC50', '> 100 µM'),
  ('COc1cc2c(Nc3ccc(C#N)cc3)ncnc2cc1OCCCN(C)C', 'IC50', '> 100 µM');

Then there is this compound:
**Query** Kindly indicate its recorded IC50. Item: CCN1CCN(CCCOc2cc3ncnc(Nc4ccccc4C#N)c3cc2OC)CC1
**Result** 2.11 µM

---

# Test system: HepG2
# EXPERIMENT: Antiproliferative activity against human HepG2 cells after 72 hrs by MTT assay
# Type: functional, cell-based
# APPLIED CONDITIONS: HepG2, 72 h
pIC50: −log10 of the molar value.
QUANTITY NAME: pIC50

Study these solved cases before continuing.
INSERT INTO measurements (mol_smiles, quantitative_readout) VALUES
  ('CCN1CCN(CCCOc2cc3ncnc(Nc4cccc(C#N)c4)c3cc2OC)CC1', 4.86),
  ('COc1cc2c(Nc3ccc(C#N)cc3)ncnc2cc1OCCCN1CCC(N(C)C)CC1', 4.47);

A. COc1cc2c(Nc3ccc(C#N)cc3)ncnc2cc1OCCCN1CCN(CCO)CC1
B. COc1cc2c(Nc3ccc(C#N)cc3)ncnc2cc1OCCCN1CCC(O)CC1
**Query** Of A versus B , which is the one with smaller reported pIC50? Refer to your chosen item by its label in the answer.
**Result** B
(B: 4.17, A: 4.55)

I. COc1cc2c(Nc3ccc(C#N)cc3)ncnc2cc1OCCCN(C)CCO
II. COc1cc2c(Nc3ccccc3C#N)ncnc2cc1OCCCN1CCC(C)CC1
**Query** Of I versus II , which is the one with smaller reported pIC50? Refer to your chosen item by its label in the answer.
**Result** I

A. COc1cc2c(Nc3ccc(C#N)cc3)ncnc2cc1OCCCN1CCC(CO)CC1
B. COc1cc2c(Nc3ccc(C#N)cc3)ncnc2cc1OCCCN1CCCC1
**Query** Of A versus B , which is the one with smaller reported pIC50? Refer to your chosen item by its label in the answer.
**Result** A
(A: 4.21, B: 4.68)

I. COc1cc2c(Nc3cccc(C#N)c3)ncnc2cc1OCCCN1CCOCC1
II. COc1cc2c(Nc3ccc(C#N)cc3)ncnc2cc1OCCCN1CCCCC1
III. COc1cc2c(Nc3ccc(C#N)cc3)ncnc2cc1OCCCN1CCN(c2ccncc2)CC1
IV. COc1cc2c(Nc3ccc(C#N)cc3)ncnc2cc1OCCCN(CCO)CCO
V. COc1cc2c(Nc3ccc(C#N)cc3)ncnc2cc1OCCCN1CCOCC1
**Query** Which order do these items take when sorted by rising pIC50? List them. Please reply with the labels ordered as requested. Many thanks.
**Result** IV, II, III, I, V
(IV: 4.39, II: 4.68, III: 4.90, I: 5.72, V: 6.11)

---

# Tested on: A549
# EXPERIMENT: Antiproliferative activity against human A549 cells after 72 hrs by MTT assay
# Format: functional, cell-based
# APPLIED CONDITIONS: A549, 72 h
pIC50: −log10 of the molar value.
QUANTITY NAME: pIC50

a. COc1cc2c(Nc3ccccc3C#N)ncnc2cc1OCCCN1CCCCC1
b. COc1cc2c(Nc3ccc(C#N)cc3)ncnc2cc1OCCCN1CCC(N(C)C)CC1
**Query** Which one would you say has the larger pIC50 value: a , or b ? Refer to your chosen item by its label in the answer.
**Result** a
(a: 4.83, b: 4.37)

A. COc1cc2c(Nc3ccc(C#N)cc3)ncnc2cc1OCCCN(C)CCO
B. COc1cc2c(Nc3ccc(C#N)cc3)ncnc2cc1OCCCN(CCO)Cc1ccccc1
C. COc1cc2c(Nc3ccc(C#N)cc3)ncnc2cc1OCCCN1CCC(c2ccccc2)CC1
**Query** # rank_down: sort by pIC50, max first Please reply with the labels ordered as requested. Many thanks.
**Result** C, A, B

P. COc1cc2c(Nc3cccc(C#N)c3)ncnc2cc1OCCCN1CCC(C)CC1
Q. CCN(CC)CCCOc1cc2ncnc(Nc3ccc(C#N)cc3)c2cc1OC
R. COc1cc2c(Nc3ccc(C#N)cc3)ncnc2cc1OCCCN1CCC(N2CCCCC2)CC1
S. CCOC(=O)C1CCN(CCCOc2cc3ncnc(Nc4ccc(C#N)cc4)c3cc2OC)CC1
**Query** Which order do these items take when sorted by rising pIC50? List them. Please reply with the labels ordered as requested. Many thanks.
**Result** S, Q, R, P

a. COc1cc2c(Nc3ccc(C#N)cc3)ncnc2cc1OCCCN(CCO)CCO
b. COc1cc2c(Nc3ccccc3C#N)ncnc2cc1OCCCN1CCOCC1
**Query** Which one would you say has the larger pIC50 value: a , or b ? Refer to your chosen item by its label in the answer.
**Result** a

1. COc1cc2c(Nc3ccc(C#N)cc3)ncnc2cc1OCCCN1CCC(C)CC1
2. COc1cc2c(Nc3ccc(C#N)cc3)ncnc2cc1OCCCN1CCOCC1
3. COc1cc2c(Nc3ccc(C#N)cc3)ncnc2cc1OCCCN1CCN(CCO)CC1
4. CCN1CCN(CCCOc2cc3ncnc(Nc4ccc(C#N)cc4)c3cc2OC)CC1
**Query** # rank_down: sort by pIC50, max first Please reply with the labels ordered as requested. Many thanks.
**Result** 3, 4, 1, 2

A. COc1cc2c(Nc3ccc(C#N)cc3)ncnc2cc1OCCCN1CCCC1
B. COc1cc2c(Nc3cccc(C#N)c3)ncnc2cc1OCCCN1CCCCC1
C. CCN1CCN(CCCOc2cc3ncnc(Nc4ccccc4C#N)c3cc2OC)CC1
**Query** Which order do these items take when sorted by rising pIC50? List them. Please reply with the labels ordered as requested. Many thanks.
**Result** B, A, C

P. COc1cc2c(Nc3ccccc3C#N)ncnc2cc1OCCCN1CCCC1
Q. COc1cc2c(Nc3ccc(C#N)cc3)ncnc2cc1OCCCN1CCN(C)CC1
**Query** Which one would you say has the larger pIC50 value: P , or Q ? Refer to your chosen item by its label in the answer.
**Result** P

---

# System: HepG2
# EXPERIMENT: Antiproliferative activity against human HepG2 cells after 72 hrs by MTT assay
# Format: functional, cell-based
# APPLIED CONDITIONS: HepG2, 72 h
pIC50: −log10 of the molar value.
QUANTITY NAME: pIC50

Study these solved cases before continuing.
INSERT INTO assay_data (mol_smiles, quantitative_readout) VALUES
  ('COc1cc2c(Nc3ccc(C#N)cc3)ncnc2cc1OCCCN1CCC(N2CCCCC2)CC1', 5.05),
  ('COc1cc2c(Nc3ccc(C#N)cc3)ncnc2cc1OCCCN1CCC(C)CC1', 4.49),
  ('COc1cc2c(Nc3ccccc3C#N)ncnc2cc1OCCCN1CCOCC1', 5.43),
  ('COc1cc2c(Nc3ccc(C#N)cc3)ncnc2cc1OCCCN1CCN(C)CC1', 4.86),
  ('COc1cc2c(Nc3cccc(C#N)c3)ncnc2cc1OCCCN1CCN(C)CC1', 4.74);

1. CCOC(=O)C1CCN(CCCOc2cc3ncnc(Nc4ccc(C#N)cc4)c3cc2OC)CC1
2. COc1cc2c(Nc3ccccc3C#N)ncnc2cc1OCCCN1CCCCC1
3. COc1cc2c(Nc3ccccc3C#N)ncnc2cc1OCCCN1CCCC1
**Query** # rank_down: sort by pIC50, max first Please reply with the labels ordered as requested. Many thanks.
**Result** 2, 3, 1

---

# Tested on: A549
# EXPERIMENT: Antiproliferative activity against human A549 cells after 72 hrs by MTT assay
# Type: functional, cell-based
# APPLIED CONDITIONS: A549, 72 h
pIC50: −log10 of the molar value.
QUANTITY NAME: pIC50

INSERT INTO measurements (mol_smiles, measurement_target, quantitative_readout) VALUES
  ('CCN1CCN(CCCOc2cc3ncnc(Nc4cccc(C#N)c4)c3cc2OC)CC1', 'A549', 4.73);

P. COc1cc2c(Nc3cccc(C#N)c3)ncnc2cc1OCCCN1CCCC1
Q. COc1cc2c(Nc3ccc(C#N)cc3)ncnc2cc1OCCCN1CCCCC1
**Query** Which one would you say has the larger pIC50 value: P , or Q ? Refer to your chosen item by its label in the answer.
**Result** Q
(Q: 4.63, P: 4.40)

---

# System: HepG2
# EXPERIMENT: Antiproliferative activity against human HepG2 cells after 72 hrs by MTT assay
# Type: functional, cell-based
# APPLIED CONDITIONS: HepG2, 72 h
pIC50: −log10 of the molar value.
QUANTITY NAME: pIC50

INSERT INTO measurements (mol_smiles, quantitative_readout) VALUES
  ('COc1cc2c(Nc3cccc(C#N)c3)ncnc2cc1OCCCN1CCC(C)CC1', 4.74),
  ('COc1cc2c(Nc3ccccc3C#N)ncnc2cc1OCCCN1CCN(C)CC1', 4.58);

1. COc1cc2c(Nc3cccc(C#N)c3)ncnc2cc1OCCCN1CCCC1
2. CCN1CCN(CCCOc2cc3ncnc(Nc4ccc(C#N)cc4)c3cc2OC)CC1
3. COc1cc2c(Nc3cccc(C#N)c3)ncnc2cc1OCCCN1CCCCC1
4. CCN(CC)CCCOc1cc2ncnc(Nc3ccc(C#N)cc3)c2cc1OC
**Query** # rank_down: sort by pIC50, max first Please reply with the labels ordered as requested. Many thanks.
**Result** 2, 1, 3, 4
(2: 5.02, 1: 4.74, 3: 4.53, 4: 4.23)
